Molecular target: T1, DNA polymerase iota catalytic core (hpol ι26-446) (Homo sapiens, UniProt Q9UNA4 26-446)
T1 sequence: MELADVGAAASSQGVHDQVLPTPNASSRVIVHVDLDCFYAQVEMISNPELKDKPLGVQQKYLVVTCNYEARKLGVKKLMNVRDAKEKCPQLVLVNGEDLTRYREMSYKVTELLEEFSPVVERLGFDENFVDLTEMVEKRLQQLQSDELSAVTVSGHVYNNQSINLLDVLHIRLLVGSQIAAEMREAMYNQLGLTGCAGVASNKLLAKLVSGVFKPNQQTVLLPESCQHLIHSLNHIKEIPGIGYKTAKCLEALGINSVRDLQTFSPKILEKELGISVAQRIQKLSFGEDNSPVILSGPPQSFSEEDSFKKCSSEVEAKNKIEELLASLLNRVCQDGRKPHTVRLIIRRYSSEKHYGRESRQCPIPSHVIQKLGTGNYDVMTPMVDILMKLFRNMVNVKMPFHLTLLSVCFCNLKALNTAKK
Assay: fluorescence polarization
METRIC NAME: Kd (nM)
One number for each entry, in nM.

Dear colleague, please send me the reported Kd for FAM-13/18mer primer-template DNA (dsDNA) DNA 1: TTTGGGGGAAGGATTC DNA 2: TCACGGAATCCTTCCCCC when you can. 6.3
